Some compounds, each annotated with its measured Cmax.
Experiment: in vivo
Conditions: SD, rat, in vivo, po, 40 mg/kg
Measurement kind: Cmax (ng/mL)

[[record]]
compound = "CO/N=C1\\CN(c2c(F)c(N)c3c(=O)c(C(=O)O)cn(C4CC4)c3c2F)CC1(C)CN.Cl (single isomer, unassigned; (-)) [Example 14]"
measurement_kind = "Cmax"
obs_value = 6670

[[record]]
compound = "CO/N=C1\\CN(c2nc3c(cc2F)c(=O)c(C(=O)O)cn3C2CC2)CC1(C)CN.Cl (single isomer, unassigned; (-)) [Example 9]"
measurement_kind = "Cmax"
obs_value = 9060


---

Test system: Staphylococcus epidermidis 319
Assay: Antibacterial activity in vitro (MIC, agar dilution)
Assay type: cell-based
Settings: Staphylococcus epidermidis, 319, resistant strain Staphylococcus epidermidis 319, read-out: minimum inhibitory concentration (MIC)
Measurement kind: MIC (µg/mL)

[[record]]
compound = "CO/N=C1\\CN(c2cc3c(cc2F)c(=O)c(C(=O)O)cn3C2CC2)CC1(C)CN.Cl (single isomer, unassigned; (-))"
measurement_kind = "MIC"
obs_value = 0.391

[[record]]
compound = "C[C@@H]1CN(c2c(F)c(N)c3c(=O)c(C(=O)O)cn(C4CC4)c3c2F)C[C@H](C)N1"
measurement_kind = "MIC"
obs_value = 12.5

[[record]]
compound = "O=C(O)c1cn(C2CC2)c2cc(N3CCNCC3)c(F)cc2c1=O"
measurement_kind = "MIC"
obs_value = 100

[[record]]
compound = "CO/N=C1\\CN(c2c(F)c(N)c3c(=O)c(C(=O)O)cn(C4CC4)c3c2F)CC1(C)CN.Cl (single isomer, unassigned; (-))"
measurement_kind = "MIC"
obs_value = 0.025


---

Test system: Staphylococcus aureus 179
Test: Antibacterial activity in vitro (MIC, agar dilution)
Assay type: cell-based
Details: resistant strain Staphylococcus aureus 179, read-out: minimum inhibitory concentration (MIC)
So basically: is MIC under 0.2 µg/mL? Then MET. Not under? Then NOT MET.

[[record]]
compound = "CO/N=C1\\CN(c2nc3c(cc2F)c(=O)c(C(=O)O)cn3C2CC2)CC1(C)CN.Cl (single isomer, unassigned; (-)) [Example 9]"
class_label = "MET"

[[record]]
compound = "C[C@@H]1CN(c2c(F)c(N)c3c(=O)c(C(=O)O)cn(C4CC4)c3c2F)C[C@H](C)N1 [Sparfloxacin, sparfloxacin]"
class_label = "NOT MET"

[[record]]
compound = "CO/N=C1\\CN(c2c(F)c(N)c3c(=O)c(C(=O)O)cn(C4CC4)c3c2F)CC1(C)CN.Cl (single isomer, unassigned; (-)) [Example 14]"
class_label = "MET"

[[record]]
compound = "O=C(O)c1cn(C2CC2)c2cc(N3CCNCC3)c(F)cc2c1=O [Ciprofloxacin, ciprofloxacin]"
class_label = "NOT MET"


---

Some compounds, each annotated with its measured MIC.
Tested on: Staphylococcus aureus 293
Assay: Antibacterial activity in vitro (MIC, agar dilution)
Type: cell-based
Conditions: resistant strain Staphylococcus aureus 293, read-out: minimum inhibitory concentration (MIC)
Measurement kind: MIC (µg/mL)

[[record]]
compound = "C[C@@H]1CN(c2c(F)c(N)c3c(=O)c(C(=O)O)cn(C4CC4)c3c2F)C[C@H](C)N1"
measurement_kind = "MIC"
obs_value = 6.25

[[record]]
compound = "O=C(O)c1cn(C2CC2)c2cc(N3CCNCC3)c(F)cc2c1=O"
measurement_kind = "MIC"
obs_value = 12.5

[[record]]
compound = "CO/N=C1\\CN(c2c(F)c(N)c3c(=O)c(C(=O)O)cn(C4CC4)c3c2F)CC1(C)CN.Cl (single isomer, unassigned; (-))"
measurement_kind = "MIC"
obs_value = 0.013

[[record]]
compound = "CO/N=C1\\CN(c2nc3c(cc2F)c(=O)c(C(=O)O)cn3C2CC2)CC1(C)CN.Cl (single isomer, unassigned; (-))"
measurement_kind = "MIC"
obs_value = 0.098

[[record]]
compound = "CO/N=C1\\CN(c2cc3c(cc2F)c(=O)c(C(=O)O)cn3C2CC2)CC1(C)CN.Cl (single isomer, unassigned; (-))"
measurement_kind = "MIC"
obs_value = 0.195

